Values compiled from patent US20030129193A1.

Entries and their concentration at which plasma coagulated in 50 seconds values follow.
tested on: citrated mouse or human plasma; test: In vitro coagulation assay on A20 cells; type: cell-based; conditions: localized on A20 cells via B21-2/10H10
For clarity, give the value followed by its unit.

Some molecules with known concentration at which plasma coagulated in 50 seconds results, for comparison:
IgG-H6—N′-cys-tTF219: one molecule of IgG linked via SMPT to one or two molecules of tTF (conjugate, left off: large carriers) HHHHHHAMALVPRGSCGTTNTVAAYNLTWKSTNFKTILEWEPKPVNQVYTVQISTKSGDWKSKCFYTTDTECDLTDEIVKDVKQTYLARVFSYPAGNVESTGSAGEPLYENSPEFTPYLETNLGQPTIQSFEQVGTKVNVTVEDERTLVRRNNTFLSLRDVFGKDLIYTLYYWKSSSSGKKTAKTNTNEFLIDVDKGENYCFSVQAVIPSRTVNRKSTDSPVECMGQEKGEFRE    5 nM
tTF220-cys-C′: tTF with Ile-Cys after amino acid 219, without (His)6 tag (protein) GSGTTNTVAAYNLTWKSTNFKTILEWEPKPVNQVYTVQISTKSGDWKSKCFYTTDTECDLTDEIVKDVKQTYLARVFSYPAGNVESTGSAGEPLYENSPEFTPYLETNLGQPTIQSFEQVGTKVNVTVEDERTLVRRNNTFLSLRDVFGKDLIYTLYYWKSSSSGKKTAKTNTNEFLIDVDKGENYCFSVQAVIPSRTVNRKSTDSPVECMGQEKGEFREIC    0.5 nM

Shift focus to the following entry.
I'd like to know its concentration at which plasma coagulated in 50 seconds. The molecule in question is H6-tTF219-cys-C′: (His)6 tTF219 with a Cys after amino acid 219 (protein) HHHHHHAMALVPRGSGTTNTVAAYNLTWKSTNFKTILEWEPKPVNQVYTVQISTKSGDWKSKCFYTTDTECDLTDEIVKVKQTYLARVFSYPAGNVESTGSAGEPLYENSPEFTPYLETNLGQPTIQSFEQVGTKVNVTVEDRTLVRRNNTFLSLRDVFGKDLIYTLYYWKSSSSGKKTAKTNTNEFLIDVDKGENYCFSVQAVIPSRTVNRKSTDSPVECMGQEKGEFREC
3 nM
